The measured values listed here are drawn from patent US20210261527A1.

ASSAYED SYSTEM: recombinant human Meningioma Expressed Antigen 5 (MGEA5), also referred to as O-GlcNAcase (OGA) (Homo sapiens)
Construct: Full length OGA enzyme was purchased at OnGene (cat #TP322411); purchased OnGene (so in the source)
PROTOCOL DETAILS: OGA biochemical assay (FM-GlcNAc hydrolysis, fluorescence)
ASSAY SETUP: full length OGA 2 nM, FM-GlcNAc 100 uM, pH 7.2, 6 h at room temperature; read-out: Enzymatic hOGA; pIC50 (converted)
ASSAY METRIC: IC50 (µM)

MOLECULE | U | IC50
Cc1cc(C[C@H]2CCCN(C(C)c3cc4ncccc4cn3)C2)cc(C)n1 (mixture of isomers) | µM | 0.0479
Cc1cc(C[C@H]2CCCN(C(C)c3ccc4nc(O)cnc4c3)C2)cc(C)n1 (mixture of isomers) | µM | 0.107
Cc1cc(C[C@H]2CCCN([C@@H](C)c3cnc4cccnc4c3)C2)cc(C)n1 (single isomer, unassigned) | µM | 0.0288
Cc1cc(C[C@H]2CCCN([C@H](C)c3ccc4ccc(C)nc4c3)C2)cc(C)n1 (single isomer, unassigned) | µM | 0.0537
Cc1cc(C[C@H]2CCCN([C@H](C)c3cnc4cccnc4c3)C2)cc(C)n1 (single isomer, unassigned) | µM | 0.0055

[1] Cc1cc(C[C@H]2CCCN(Cc3ccc4cccnc4n3)C2)cc(C)n1
[2] Cc1cc(C[C@H]2CCCN(Cc3ccc4cccnc4c3)C2)cc(C)n1
Query: Could you kindly indicate whether 1 or 2 has the higher IC50 value? State your choice using its label.
Reply: 2

[1] Cc1cc(C[C@H]2CCCN([C@@H](C)c3ccc4ccc(C)nc4c3)C2)cc(C)n1 (single isomer, unassigned)
[2] Cc1cc(C[C@H]2CCCN(C(C)c3ccc4cccnc4n3)C2)cc(C)n1 (mixture of isomers)
Query: Could you check which of 1 and 2 has a smaller value for IC50? Pick one and reply with its label.
Reply: 2
(2: 0.0148 µM, 1: 7.24 µM)

----------
ASSAYED SYSTEM: hOGA in HEK293 cells inducible for P301L mutant human Tau (isoform 2N4R) (Homo sapiens, UniProt O60502)
Construct: endogenous in cells; host or cells: HEK293 cells inducible for P301L mutant human Tau (isoform 2N4R)
Sequence (O60502 1-916): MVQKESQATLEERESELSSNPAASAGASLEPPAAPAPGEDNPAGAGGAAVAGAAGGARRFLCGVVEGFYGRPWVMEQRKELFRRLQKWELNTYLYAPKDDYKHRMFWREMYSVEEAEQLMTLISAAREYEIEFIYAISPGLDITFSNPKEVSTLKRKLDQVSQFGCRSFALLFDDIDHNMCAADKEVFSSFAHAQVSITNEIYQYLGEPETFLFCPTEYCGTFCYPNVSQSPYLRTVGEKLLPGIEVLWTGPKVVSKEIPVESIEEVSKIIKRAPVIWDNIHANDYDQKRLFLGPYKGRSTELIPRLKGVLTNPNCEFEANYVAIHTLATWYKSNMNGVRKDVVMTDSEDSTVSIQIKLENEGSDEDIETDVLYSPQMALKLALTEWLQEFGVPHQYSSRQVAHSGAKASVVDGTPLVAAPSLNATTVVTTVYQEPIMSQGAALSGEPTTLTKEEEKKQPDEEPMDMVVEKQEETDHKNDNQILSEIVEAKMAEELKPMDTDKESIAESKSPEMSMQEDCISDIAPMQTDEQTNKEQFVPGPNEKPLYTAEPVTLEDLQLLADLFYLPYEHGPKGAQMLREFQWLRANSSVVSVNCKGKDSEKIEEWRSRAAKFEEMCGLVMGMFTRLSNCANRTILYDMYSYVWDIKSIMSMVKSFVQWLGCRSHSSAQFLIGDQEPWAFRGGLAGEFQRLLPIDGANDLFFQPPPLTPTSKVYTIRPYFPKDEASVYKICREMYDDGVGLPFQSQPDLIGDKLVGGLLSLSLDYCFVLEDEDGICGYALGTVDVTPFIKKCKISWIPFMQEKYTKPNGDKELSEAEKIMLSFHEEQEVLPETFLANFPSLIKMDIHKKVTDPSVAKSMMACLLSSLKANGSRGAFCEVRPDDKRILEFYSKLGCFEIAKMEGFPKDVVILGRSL
PROTOCOL DETAILS: OGA cellular assay (ICC detection of O-GlcNAcylated proteins)
Assay type: cell-based
ASSAY SETUP: 6 hours incubation, O-GlcNAcylation intensity readout at 488 nm, read-out: Cellular hOGA, pEC50 (converted)
Procedure: HEK293 cells inducible for P301L mutant human Tau (isoform 2N4R) were established at Janssen. Thiamet-G was used for both plate validation (high control) and as reference compound (reference EC50 assay validation). OGA inhibition is evaluated through the immunocytochemical (ICC) detection of O-GlcNAcylated proteins by the use of a monoclonal antibody (CTD110.6; Cell Signaling, #9875) detecting 0-GlcNAcylated residues as previously described (Dorfmueller et al. 2010 Chemistry & biology, 17:1250). […]
ASSAY METRIC: EC50 (nM)

COMPOUND | VALUE
Cc1cc(C[C@H]2CCCN([C@H](C)c3cnc4cccnc4c3)C2)cc(C)n1 (single isomer, unassigned) | 162

[A] Cc1cc(C[C@H]2CCCN(C(C)c3ccc4cccnc4n3)C2)cc(C)n1 (mixture of isomers)
[B] Cc1cc(C[C@H]2CCCN([C@@H](C)c3cnc4cccnc4c3)C2)cc(C)n1 (single isomer, unassigned)
Query: Lower value for measured EC50? Options: A , B Your answer should be the label of the entry you select.
Reply: A
